experiment: yeast display, Sf9 membrane polyspecificity reagent, FACS + sequencing; frameworks hold sequencing errors
Measurement label: polyreactivity (PSR sort gate)

Use these answered entries as a reference point.
Macromolecule sequence | polyreactivity (PSR sort gate)
QVQLQESGGGLVQAGGSLRLSCAASGNISVTGVMGWYRQAPGKERELVASIGIGGTTYYADSVKGRFSISRDNAKNTVYLQMNSLKPEDTAVYYCGARYVYSAYSYWGQGSQVTVSS | low polyreactivity
QVQLVESGGGLVQAGGSLRLSCAASGATFSVNAMGWYRQAPGKEREWVAAISSTGSTKYADSVKGRFTISRDNAKNPVYLQMNSLKPEDTAVYCAASNADYEYYPFSVWYFSPYDYWGHGTQVTVSS | low polyreactivity
QVQLVESGVGLLQAGGSLRLSCAAYGYTMGLYRQAPGKEREFVAAINQTGGSTSADSVKGRFTISRDNANNTVYLQLNSLKPEDTAVYYCAADISVYSDSHDVSINYRYDYWGLGTQVTVSS | low polyreactivity
QVQLVESGGGLVQAGGSLRLSCAASGFTFYYYAMGWYRQAPGKERELVAAINWSGGTTYYADSVKGRFTISRDNAKNTVYLQMNSLKPEDTAVYYCAVSVFTVAPYRRYDYWGQGTQVTVSS | high polyreactivity

Pending sequence:
# polyreactivity (PSR sort gate) (sequence: `QVQLVESGGGLVQAGGSLRLSCAASGSIFRKYTMGWYKQAPGKERELVAAISGTAGRTYYADSVKGRFTISRDNAKNTVYLKMNSLKPEDTAVYYCAALRFGGYGYNYWGQGTQVTVSS` ) is high polyreactivity
